conditions: buffer; pH 7.4; 6.0 h; 150.0 µM
reported endpoint: solubility kinetic

- NC(=O)C1CCN(c2nc(-c3cccc(F)c3)cs2)CC1: > 45 µg/mL

Okay, here is my list. What is solubility kinetic for each of these?
1. COc1ccccc1-n1cnc2cc(C(=O)N3CCCCC3)ccc21
2. O=C(Nc1ccc(Oc2ccnc3[nH]ccc23)c(F)c1)c1cccn(-c2ccc(F)cc2)c1=O
3. COc1ccccc1OCCNCC(O)COc1cccc2[nH]c3ccccc3c12 (stereo unspecified)
4. COc1ccc(NC(=O)c2[nH]c(C)c(C(C)=O)c2C)cc1S(=O)(=O)N1CCCCC1
5. CCOC(=O)C1CCN(c2nc(-c3ccc(Br)cc3)cs2)CC1
6. O=C(O)c1ccccc1C(=O)Nc1ccc(-c2ccccc2)cc1

Result:
["> 50 µg/mL", "< 1 µg/mL", "> 60 µg/mL", "34.2 µg/mL", "< 1 µg/mL", "> 47 µg/mL"]

Just for reference, PubChem BioAssay AID1645848 is where these values come from.
